Origin of values: patent US6906078B2

inhibition in vivo at 3 mg/kg reference
- Test system: gastric acid secretion
- EXPERIMENTAL_DETAILS: Inhibition of gastric acid secretion in gastric fistula beagle dogs (histamine-stimulated)
- Type: in vivo
- ASSAY_SETUP: Canis lupus familiaris, intraduodenal, 4 h; 3 mg/kg i.d.; histamine-stimulated, four-hour period; read-out: Gastric-Fistula Beagle % Inhibition (3 mg/kg dose)
MEASURE_NAME: inhibition in vivo at 3 mg/kg (%)

[
  {
    "MOLECULE": "Nc1ccccc1C[S+]([O-])c1nc2cc(C(F)(F)F)ccc2[nH]1 (centres unmarked) [Example 47]",
    "EXPERIMENTAL_VALUE": 37
  },
  {
    "MOLECULE": "Nc1ccc(C(F)(F)F)cc1C[S+]([O-])c1nc2ccccc2[nH]1 (centres unmarked) [Example 49]",
    "EXPERIMENTAL_VALUE": 16
  },
  {
    "MOLECULE": "Nc1ccccc1C[S+]([O-])c1nc2ccccc2[nH]1 (centres unmarked) [Example 3]",
    "EXPERIMENTAL_VALUE": 53
  },
  {
    "MOLECULE": "COc1ccc2[nH]c([S+]([O-])Cc3ccccc3N)nc2c1 (centres unmarked) [Example 12]",
    "EXPERIMENTAL_VALUE": 90
  },
  {
    "MOLECULE": "COc1ccc2[nH]c([S+]([O-])Cc3c(N)cc(C)c(OC)c3C)nc2c1 (centres unmarked) [Example 78]",
    "EXPERIMENTAL_VALUE": 31
  }
]
